# MEASUREMENT_NOTES: IV and oral DMPK cassette dose experiment
# Format: in vivo, C57Bl/6 mice
# EXPERIMENTAL_PARAMETERS: male, C57Bl/6, mouse, plasma, iv, 1 mg/kg
Form field: half-life (one value per entry).
Form entry: value (min) — number only.

Observe how each entry below is paired with its result.
{"MOLECULE": "Cc1cc(Cl)ccc1CN(Cc1ccc(Cl)cc1)Cc1ccc([N+](=O)[O-])s1", "half-life [min]": 99}
{"MOLECULE": "N#Cc1ccc(CN(Cc2cccnc2)Cc2ccc(F)c(F)c2)s1", "half-life [min]": 44.4}
{"MOLECULE": "CCOC(=O)N1CCC(CN(Cc2ccc(Cl)cc2)Cc2ccc([N+](=O)[O-])s2)C1 (centres unmarked) [Compound 3, reference compound]", "half-life [min]": 33}

**Q:** Entry O=[N+]([O-])c1ccc(CN(Cc2ccc(F)cc2)Cc2cccnc2)s1 has what half-life?
**A:** 44.4

**Q:** Also need N#Cc1ccc(CN(Cc2ccc(Cl)cc2)Cc2cccnc2)s1 , thanks.
**A:** 76.2
